Source of measurements: ChEMBL document CHEMBL1201862

- Test system: SNB-75
- test name: NCI tumour cell line growth inhibition, 48 h
Active and inactive are the calls of the source. No stated cut-off is given here; in the data, active = GI50 up to about 1.1 µM and inactive = higher. Square brackets hold non-standard residues; d marks the D form. Peptide text beside a SMILES is read from it. * marks the point of attachment. ξ: configuration not given here. ξW = NC(Cc1c[nH]c2ccccc12)C(=O)O; X29 = O=C(O)[C@H]1CCC[C@H]1N*; ξF = NC(Cc1ccccc1)C(=O)O; Boc = CC(C)(C)OC(=O)*; ξK = NCCCCC(N)C(=O)O; ξT = CC(O)C(N)C(=O)O; tBu = CC(C)(C)*
Respond only with the outcome that fits, drawn from active, inactive

molecule	qualitative label
CCOC(=O)c1cn2c(n1)sc1cc(OC)ccc12	inactive
CC(OC(C)(C)C)C(NC(=O)C(CCCCNC(=O)OC(C)(C)C)NC(=O)C(Cc1c[nH]c2ccccc12)NC(=O)C(N)Cc1ccccc1)C(=O)NC(Cc1ccccc1)C(=O)N[C@@H]1CCC[C@@H]1C(=O)O (some centres undefined) (H-[ξF][ξW][ξK](Boc)[ξT](tBu)[ξF]-X29)	inactive
CCCCCCCCCCCCC1NC(=N)NC2(CCCO2)C1C(=O)OC (centres undefined)	inactive
CN(N)C(=O)NCCCl	inactive

Request: Fill in: this test's call for CC(C)NC(=O)OCc1c(COC(=O)NC(C)C)c(-c2ccc[n+](COC(=O)C(C)(C)C)c2)n2c1CCC2 is ___
Result: inactive

Request: Fill in: this test's call for CCCn1cnc2c(/N=N/O)ncnc21 is ___
Result: inactive

Request: Fill in: this test's call for C/C(=C\COc1cc(O)c2c(c1)C(=O)c1cc(C)cc(O)c1C2=O)CCC1OC1(C)C (centres undefined) is ___
Result: inactive

Request: Fill in: this test's call for COC(=O)[C@@H]1C(=O)O[C@@H](c2ccc(OC)c(OC)c2OC)[C@@H]1C(=O)OC.COC(=O)[C@H]1C(=O)O[C@@H](c2ccc(OC)c(OC)c2OC)[C@@H]1C(=O)OC is ___
Result: inactive

Request: Fill in: this test's call for COc1cc(CNc2nc3cc(C(F)(F)F)ccc3nc2-c2ccccc2)cc(OC)c1OC is ___
Result: inactive

Request: Fill in: this test's call for C=C1C(=O)O[C@H]2C/C(C)=C/CC/C(C)=C/CC[C@@](C)(O)[C@@H](I)C[C@@H]12 is ___
Result: inactive

Request: Fill in: this test's call for C=Cc1c(C)c2cc3nc(c4c5[nH]c(cc6nc(cc1[nH]2)C(C)=C6CC)c(C)c5C(=O)C4C(=O)OC)C(CCC(=O)OC)C3C (centres undefined) is ___
Result: inactive

Request: Fill in: this test's call for CC(=O)NC1=C(C)C(=O)c2c(nc3n2CCC3O)C1=N (centres undefined) is ___
Result: inactive

Request: Fill in: this test's call for O=c1c2c(nc3[nH]ccn13)CCCC2 is ___
Result: inactive

Request: Fill in: this test's call for COc1ccc2c(c1)c1c3c(ccc4ncn2c43)N(CCN(C)C)CCN=1 is ___
Result: active

====

This section presents compounds with their documented GI50 values.
- Test system: PC-3
- test name: NCI tumour cell line growth inhibition, 48 h
Active and inactive are the calls of the source. Cut-off read from the data, not from the text of the source: active = GI50 up to about 1.1 µM and inactive = higher.

Answered examples (5):
> print(dat)
                                   compound  system.name              reading
1  CC1(C(=O)O)CCC(C(=O)O)C(C)(C)O1 (configuration not stated)         PC-3  > 100 µM (inactive)
2  CCOC(=O)N1[C@@H]2CCC[C@@H]2C(=O)[C@@H]2CCC[C@@H]21         PC-3  > 100 µM (inactive)
3  COc1ccc(/N=N/C(=O)NC(CC(C)C)C(=O)NC(C)C(=O)O)cc1 (configuration not stated)         PC-3   4.72 µM (inactive)
4  O=[N+]([O-])c1ccc2[nH]nc(OCc3ccccc3Cl)c2c1         PC-3  > 100 µM (inactive)
5  Cc1cc(C)c(S(=O)(=O)N(CCCCCN)OCCCN)c(C)c1         PC-3   14.7 µM (inactive)

The record that follows has no GI50 shown yet.
Request: For the record Cc1cc2c(cc1Cl)SC(NNC(=O)c1ccncc1)=NS2(=O)=O , what value of GI50 is listed for PC-3?
Result: > 10 µM (inactive)

====

- Tested on: UACC-257
- test name: NCI tumour cell line growth inhibition, 48 h
The source made the active and inactive calls. Cut-off read from the data, not from the text of the source: active = GI50 up to about 1.1 µM and inactive = higher.
This section presents compounds with their documented GI50 values.

> print(dat)
                                   compound              reading
1  CN(C)CCC(=O)[C@@]1(O)CC[C@H]2[C@@H]3CC=C4C[C@@H](O)CC[C@]4(C)[C@H]3CC[C@@]21C   13.3 µM (inactive)
2                        CCCCCCCCCCCCCB(O)O  > 100 µM (inactive)
3       Cc1ccc2[nH]c3c(C)c4ccncc4c(C)c3c2c1   1.41 µM (inactive)
4  NC(=O)N/N=C(\CC1OC(=O)c2ccccc21)c1ccc([N+](=O)[O-])cc1 (configuration not stated)   67.3 µM (inactive)

Request: For the compound shown here, O=C(O)c1nn(-c2ccc(Cl)cc2)c2c1C(=O)c1ccccc1C2=O , give the reported GI50.
Result: > 100 µM (inactive)

Request: For the compound shown here, Cc1ccc2c(c1)C(=O)c1[nH]c3ccc(F)cc3c1CO2 , give the reported GI50.
Result: > 100 µM (inactive)

Request: For the compound shown here, O=C(Cc1ccccc1)NNc1nc(NNC(=O)c2ccncc2)nc(Nc2cccc(Cl)c2)n1 , give the reported GI50.
Result: > 10 µM (inactive)

====

- System: SF-539
- test name: NCI tumour cell line growth inhibition, 48 h
Calls of active or inactive are those of the source. No stated cut-off is given here; in the data, active = GI50 up to about 1.1 µM and inactive = higher.
This section presents compounds with their documented GI50 values.

compound	reading
CC(=O)Oc1ccc2cc(-c3ccc(OC(C)=O)c(OC(C)=O)c3)c(=O)oc2c1	> 100 µM (inactive)
O=C(O)CSSCC(=O)O	> 100 µM (inactive)
CC(=O)OCC1OC(OCCCOP(=O)(OCCC#N)OCC2OC(n3cnc4c(N)ncnc43)C(OC(=O)c3ccccc3)C2OC(=O)c2ccccc2)C(OC(C)=O)C(OC(C)=O)C1OC(C)=O (stereo not given)	> 100 µM (inactive)
O=c1cc(-c2ccccc2)[nH]c2cc(F)cc(F)c12	24.4 µM (inactive)

Request: For the record O=[N+]([O-])c1ccc2[nH]nc(OCc3ccccc3Cl)c2c1 , what value of GI50 is listed for SF-539?
Result: 22.4 µM (inactive)

Request: For the record C[C@]12CC(C=O)C(=O)C(O)=C1CC[C@@H]1C2CC[C@@]2(C)C1CC[C@]2(C)O (stereo not given in full) , what value of GI50 is listed for SF-539?
Result: 18.5 µM (inactive)

Request: For the record CC12CC3OC(=O)C1COC14OC5(C2C1=O)C(O)(CCC1C4CC2OC24CC=CC(=O)C14C)C(=O)OC35C (stereo not given) , what value of GI50 is listed for SF-539?
Result: 12.6 µM (inactive)

Request: For the record O=c1[nH]c(Nc2nc3ccccc3[nH]2)nc(O)c1-c1ccccc1 , what value of GI50 is listed for SF-539?
Result: > 100 µM (inactive)

Request: For the record CN(C)CCNC(=O)c1cc([N+](=O)[O-])cc2ccc(-c3ccccc3)nc12 , what value of GI50 is listed for SF-539?
Result: 7.66 µM (inactive)

Request: For the record O=C(Nc1cccc(Cl)c1)C(=O)C(C(=O)c1ccc2ccccc2c1)C1OC(=O)c2ccccc21 (stereo not given) , what value of GI50 is listed for SF-539?
Result: 7.8 µM (inactive)

Request: For the record CC(C)(C)OC(=O)N1CC(C)(C)N2C(=O)C3(CCCO3)C12 (stereo not given) , what value of GI50 is listed for SF-539?
Result: > 100 µM (inactive)

Request: For the record O=c1cc(NNc2ccc3ccccc3c2)[nH]c(=S)[nH]1 , what value of GI50 is listed for SF-539?
Result: 30.3 µM (inactive)

Request: For the record O=C(c1ccccc1)C(Nc1ccc2ccccc2c1)c1ccccc1 (stereo not given) , what value of GI50 is listed for SF-539?
Result: 54.2 µM (inactive)

Request: For the record CS(=O)(=O)N1CC(CCl)c2ccc([N+](=O)[O-])cc21 (stereo not given) , what value of GI50 is listed for SF-539?
Result: > 100 µM (inactive)

Request: For the record c1ccc(C2=NOC3C4CCC(C4)C23)cc1 (stereo not given) , what value of GI50 is listed for SF-539?
Result: > 100 µM (inactive)
